This collection of values is drawn from PubChem BioAssay AID1159580.

- Assay method text: chemical genetic growth profiling, strain panel (AID 1159580);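 note: tested at 20 µM; growth read once vehicle control cultures reached saturation at 30 °C; lower values mean less growth of the strain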
- Experimental parameters: S. cerevisiae deletion strains, growth OD, locus YMR223W, strain ubp8
The whole screen tested about 5,500 compounds, of which about 2,000 (36%) were called active. Roughly 18% stayed inconclusive and do not appear here. Cut-off read from the data, not from the text of the source: active = normalized growth mostly below about 0.91 (no sharp cut-off); inconclusive = no clear call, values can overlap the other calls; inactive = mostly above about 0.92. Some of the results follow.
Would you mind answering with one of these outcomes? y = active, n = inactive

Completed entries (count: 7):
Molecule: CC(=O)Oc1c(C)c(C)c2c(c1C)CCC(C)(CCCC(C)CCCC(C)CCCC(C)C)O2 (stereo not drawn)
Label value: n
--
Molecule: COc1ccc(NS(=O)(=O)c2ccc(N)cc2)nn1
Label value: n
--
Molecule: O=C(O)CC[N+](=O)[O-]
Label value: n
--
Molecule: COc1ccc(-c2c(O)c3c(OC)c4c(cc3oc2=O)OC(C)(C)C=C4)cc1
Label value: n
--
Molecule: CNC(=O)Oc1ccccc1OC(C)C
Label value: n
--
Molecule: CC(=O)O[C@@H]1C2CC[C@@H]3C1(C[C@@H](O)[C@@]1(O)[C@@H](C[C@H](O)C1(C)C)[C@]3(C)O)C[C@@]2(C)O (stereo partly drawn)
Label value: n
--
Molecule: C/C(=C\CO)CC[C@H](C)CCC[C@H](C)CCCC(C)C
Label value: y

### Prompt Could you check what this test reported for C[C@H]1C(=O)CCC2[C@]3(C)CC[C@@]4(C)C5CC(C)(C)CC[C@]5(C)CC[C@]4(C)C3CC[C@@]21C (stereo partly drawn) ?
### Response n
